# Assay Comment: pKa measurements of individual IAJD molecules by titration
# Assay type: physicochemical
# Setup Conditions: ethanol saturated with NaCl, titrated with 0.1 M aqueous HCl; individual IAJD molecules, titration
# Description: pKa measurements of individual IAJD Molecules was performed as follows. IAJD Molecules were first dissolved in ethanol (Sat. with NaCl) at a concentration of 1.5 mg/mL and the solution volume was 3 mL. Then 0.1 M HCl solution was added to the above ethanol solution with an increment of 7.5 μL. […]
Parameter Measured: pKa

{"Compound": "CCCCCCCCCCCCCCCCCOc1cc(COC(=O)c2cc(OCCOCCOCCCC(=O)CCCN3CCCCC3)c(OCCOCCOCCOCc3ccccc3)c(OCCOCCOCCOC(=O)CCCN3CCCCC3)c2)cc(OCCCCCCCCCCC)c1", "pKa": 7.38}
{"Compound": "CCCCCCCCCCCCCCCOc1cc(COC(=O)CCCN2CCN(CCO)CC2)cc(OCCCCCCCC)c1", "pKa": 6.62}
{"Compound": "CCCCCCCCCCCCCCCCOc1cc(COC(=O)CCCN2CCN(C)CC2)cc(OCCCCCCCCCCCCC)c1", "pKa": 5.91}
{"Compound": "CCCCCCCCCCCCCCCCCOc1cc(CNC(=O)c2cc(OCCOCCOCCOC(=O)CCCN3CCCCC3)c(OCCCOCOCCOCc3ccccc3)c(OCCOCCOCCOC(=O)CCCN3CCCCC3)c2)cc(OCCCCCCCCCCCCCCCCC)c1", "pKa": 7.4}
{"Compound": "CCCCCCCCCCCOc1cc(COC(=O)CCCN2CCN(CCO)CC2)cc(OCC(CC)CCCC)c1 (stereo not shown)", "pKa": 6.62}
{"Compound": "CCCCCCCCCCCCCOc1cc(COC(=O)CCCN2CCN(C)CC2)cc(OCC(CC)CCCC)c1 (stereo not shown)", "pKa": 6.38}
{"Compound": "CCCCCCCCCCCCCCCCOc1cc(COC(=O)CCCN2CCN(C)CC2)cc(OCCCCCCCCCCCCCCC)c1", "pKa": 6.5}
{"Compound": "CCCCCCCCCCCCCCCCCOc1cc(COC(=O)CCCN2CCN(C)CC2)cc(OCCCCCCCCCCC)c1", "pKa": 6.52}
{"Compound": "CCCCCCCCCCCCCCCCCCOc1cc(COC(=O)CCCN2CCN(C)CC2)cc(OCCCCCCCCCCCCC)c1", "pKa": 5.9}
{"Compound": "CCCCCCCCCCCCCCCCOc1cc(COC(=O)CCCN2CCN(CCO)CC2)cc(OCCCCCCCCCCC)c1", "pKa": 6.37}
{"Compound": "CCCCCCCCCCCOc1cc(COC(=O)CCCN2CCN(CCO)CC2)cc(OCCCCCCCCCC)c1", "pKa": 6.32}
{"Compound": "CCCCCCCCCCCOc1cc(COC(=O)c2cc(OCCOCCOCCCC(=O)CCCN3CCCCC3)c(OCCOCCOCCOCc3ccccc3)c(OCCOCCOCCOC(=O)CCCN3CCCCC3)c2)cc(OCCCCCCCCCCC)c1", "pKa": 7.58}
{"Compound": "CCCCCCCCCCCOc1cc(COC(=O)c2cc(OCCOCCOCCCC(=O)CCCN3CCCCC3)c(OCCOCCOCCOCc3ccccc3)c(OCCOCCOCCOC(=O)CCCN3CCCCC3)c2)cc(OCC(CC)CCCC)c1 (stereo not shown)", "pKa": 7.4}
{"Compound": "CCCCCCCCCCCOc1cc(COC(=O)CCCN2CCN(CCO)CC2)cc(OCCCCCCCC)c1", "pKa": 6.52}
{"Compound": "CCCCCCCCCCCCCCCOc1cc(COC(=O)CCCN2CCN(CCO)CC2)cc(OCCCCCCCCCCC)c1", "pKa": 6.44}
{"Compound": "CCCCCCCCCCCCCCCOc1cc(COC(=O)CCCN2CCN(CCO)CC2)cc(OCC(CC)CCCC)c1 (stereo not shown)", "pKa": 6.5}
{"Compound": "CCCCCCCCCCCCOc1cc(COC(=O)CCCN2CCN(CCO)CC2)cc(OCCCCCCCCCCC)c1", "pKa": 6.65}
{"Compound": "CCCCCCCCCCCCCCOc1cc(CNC(=O)CCCN2CCN(C)CC2)cc(OCCCCCCCCCCC)c1", "pKa": 6.57}
{"Compound": "CCCCCCCCCCCCCCCOc1cc(COC(=O)CCCN2CCN(C)CC2)cc(OCC(CC)CCCC)c1 (stereo not shown)", "pKa": 6.32}

----------
# Assay Comment: Dimensions (size, PDI) of DNPs co-assembled from IAJDs and Luc-mRNA by DLS
# Type: physicochemical
# Setup Conditions: Table 17; DNPs used in vivo, IAJD 4 mg/mL, Luc-mRNA 0.10 mg/mL, acetate pH 4.0
Parameter Measured: Size (d, nm)

Past entries and their recorded results:
{"Molecule": "CCCCCCCCCCCCCCCCCOc1cc(COC(=O)CCCN2CCN(C)CC2)cc(OCCCCCCCCCCC)c1", "Result Number": 158}
{"Molecule": "CCCCCCCCCCCCCCCOc1cc(COC(=O)CCCN2CCN(C)CC2)cc(OCCCCCCCCCCCCC)c1", "Result Number": 194}
{"Molecule": "CCCCCCCCCCCCCOc1cc(COC(=O)CCCN2CCN(CCO)CC2)cc(OCC(CC)CCCC)c1 (centres unmarked)", "Result Number": 191}

a: CCCCCCCCCCCCCCCCOc1cc(COC(=O)CCCN2CCN(CCO)CC2)cc(OCCCCCCCCCCC)c1
b: CCCCCCCCCCCOc1cc(COC(=O)CCCN2CCN(C)CC2)cc(OCCCCCCCCCC)c1
Q: Could you point out whether the larger Size (d, nm) belongs to a or to b ? Mark your answer with the label of the selected entry.
Ans: a

----------
# Assay Comment: Dimensions (size, PDI) of DNPs co-assembled from IAJDs and Luc-mRNA by DLS
# Format: physicochemical
# Setup Conditions: Table 13; DNPs, IAJD 4 mg/mL + Luc-mRNA 0.10 mg/mL, acetate buffer pH 4.0
Parameter Measured: PDI

Past entries and their recorded results:
{"Compound": "CCCCCCCCCCOc1cc(COC(=O)CCCN2CCN(CCO)CC2)cc(OCCCCCCCCCC)c1", "Result Number": 0.498}
{"Compound": "CCCCC(CC)COc1cc(COC(=O)CCCN2CCN(CCO)CC2)cc(OCC(CC)CCCC)c1 (stereo not drawn)", "Result Number": 0.486}
{"Compound": "CCCCCCCCCCCCCCCCOc1cc(COC(=O)CCCN2CCN(C)CC2)cc(OCCCCCCCCCCC)c1", "Result Number": 0.234}
{"Compound": "CCCCCCCCCCCCCCCCCCOc1cc(COC(=O)CCCN2CCN(C)CC2)cc(OCCCCCCCCCCCC)c1", "Result Number": 0.279}
{"Compound": "CCCCCCCOC(=O)CCCCOc1cc(COC(=O)CCCN2CCN(C)CC2)cc(OCCCCC(=O)OCCCCCCC)c1", "Result Number": 0.250}

P: CCCCC(CC)COc1cc(COC(=O)CCCN2CCN(C)CC2)cc(OCC(CC)CCCC)c1OCC(CC)CCCC (stereo not drawn)
Q: CCCCCCCCCCCCCCCCCCOc1cc(COC(=O)CCCN2CCN(C)CC2)cc(OCCCCCCCCCCCCCCCCCC)c1
Q: For the pair P and Q , which entry has the numerically smaller recorded PDI? Mark your answer with the label of the selected entry.
Ans: Q

----------
# Assay Comment: Dimensions (size, PDI) of DNPs co-assembled from IAJDs and Luc-mRNA by DLS
# Assay type: physicochemical
# Setup Conditions: Table 13; DNPs, IAJD 4 mg/mL + Luc-mRNA 0.10 mg/mL, acetate buffer pH 4.0
Parameter Measured: PDI

Past entries and their recorded results:
{"Compound": "CCCCCCCCCCCCOCC(COCCCCCCCCCCCC)(COCCCCCCCCCCCC)COC(=O)CCCN1CCN(CCO)CC1", "PDI": 0.430}
{"Compound": "CCCCCCCCCCCCOc1cc(COC(=O)CCCN2CCCCC2)cc(OCCCCCCCCCCCC)c1", "PDI": 0.249}
{"Compound": "CCCCC(CC)COc1cc(COC(=O)CCCN2CCN(CCO)CC2)cc(OCC(CC)CCCC)c1OCC(CC)CCCC (centres unmarked)", "PDI": 0.482}

a: CCCCCCCCCCCCCCCCCCOc1cc(COC(=O)CCCN2CCN(CCO)CC2)cc(OCCCCCCCCCCCCCCCCCC)c1
b: CCCCC(CC)COC(=O)CCCCOc1cc(COC(=O)CCCN2CCN(CCO)CC2)cc(OCCCCC(=O)OCC(CC)CCCC)c1 (centres unmarked)
Q: Could you point out whether the larger PDI belongs to a or to b ? Mark your answer with the label of the selected entry.
Ans: a

Hey, just so you know, these numbers are from patent US20240252677A1.
